B1: TIA1 (parent)
chain: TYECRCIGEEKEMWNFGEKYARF

variants of: B1; assay: protein stability index of a GFP-peptide fusion (GPS, HEK-293T) (PSI 1-6); higher = more stable; settings: c terminus: native;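 note: lentivirally expressed fusions sorted by FACS into six bins by GFP to DsRed ratio, PSI derived from sequencing read proportions per bin multiplied by bin number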
Quick rule for you: protein stability index at 2 or higher means TRUE, lower means FALSE.

variant notation: R5L
assigned label: TRUE
--
variant notation: C4W
assigned label: FALSE
--
variant notation: M13K
assigned label: FALSE
--
variant notation: Y20E
assigned label: TRUE
--
variant notation: G17D
assigned label: TRUE
--
variant notation: T1C
assigned label: FALSE
--
variant notation: Y2A
assigned label: TRUE
--
variant notation: N15F
assigned label: TRUE
--
variant notation: M13D
assigned label: TRUE
--
variant notation: R22M
assigned label: FALSE
--
variant notation: Y2Q
assigned label: TRUE
--
variant notation: F23I
assigned label: FALSE
--
variant notation: Y20C
assigned label: FALSE
--
variant notation: K11I
assigned label: FALSE
--
variant notation: E10I
assigned label: TRUE
--
variant notation: Y20M
assigned label: TRUE
--
variant notation: F16C
assigned label: TRUE
--
variant notation: T1A
assigned label: TRUE
--
variant notation: G8C
assigned label: FALSE
--
variant notation: G17R
assigned label: TRUE
--
variant notation: E3K
assigned label: FALSE
--
variant notation: M13P
assigned label: TRUE
--
variant notation: C4A
assigned label: TRUE
--
variant notation: G17E
assigned label: TRUE
--
variant notation: A21G
assigned label: TRUE
--
variant notation: G8Y
assigned label: TRUE
--
variant notation: Y20H
assigned label: TRUE
--
variant notation: A21C
assigned label: FALSE
--
variant notation: E18Q
assigned label: FALSE
--
variant notation: E9C
assigned label: TRUE
--
variant notation: E9Y
assigned label: FALSE
--
variant notation: E3P
assigned label: TRUE
--
variant notation: E9W
assigned label: FALSE
--
variant notation: K19Y
assigned label: TRUE
--
variant notation: R5S
assigned label: TRUE
--
variant notation: R5K
assigned label: TRUE
--
variant notation: K11Y
assigned label: TRUE
--
variant notation: R22H
assigned label: TRUE
--
variant notation: K19E
assigned label: TRUE
--
variant notation: F16E
assigned label: TRUE
--
variant notation: C4P
assigned label: TRUE
--
variant notation: R5F
assigned label: TRUE
--
variant notation: E3C
assigned label: TRUE
--
variant notation: F23P
assigned label: TRUE
